# assayed-target: mutant mAhR A375V (Mus musculus, UniProt P30561, A375V/M324I)
# procedure-text: biochemical
readout-label: EC50 (nM)
Write the value in nM as a bare number.

Exam item: Sample Clc1cc2c(cc1Cl)Oc1cc(Cl)c(Cl)cc1O2 [TCDD, 2,3,7,8-tetrachlorodibenzo-p-dioxin] — what was its EC50?
Marked response: 5.25

###

# assayed-target: mutant mAhR S352N (Mus musculus, UniProt P30561, M324I/S352N)
# procedure-text: AhR DNA binding (gel retardation) assay, S352N mAhR
readout-label: EC50 (nM)
Numeric only. Scale: nM

Exam item: Consider the compound Clc1cc2c(cc1Cl)Oc1cc(Cl)c(Cl)cc1O2 and give its measured EC50.
Marked response: 4.34

###

# assayed-target: mutant mAhR H351N (Mus musculus, UniProt P30561, H351N/M324I)
# procedure-text: AhR DNA binding (gel retardation) assay, H351N mAhR
readout-label: pEC50
For clarity, pEC50 is expressed as the negative log10 of concentration in mol/L.

Exam item: Endpoint output: pEC50 of Clc1cc2c(cc1Cl)Oc1cc(Cl)c(Cl)cc1O2 . Value?
Marked response: 9.14

###

# assayed-target: mutant mAhR H326Y (Mus musculus, UniProt P30561, H326Y/M324I)
# procedure-text: AhR DNA binding (gel retardation) assay, H326Y mAhR
readout-label: pEC50
The scale used: pEC50 is minus the common logarithm of the concentration in molar units.

Exam item: Which measured pEC50 value corresponds to Clc1cc2c(cc1Cl)Oc1cc(Cl)c(Cl)cc1O2 ?
Marked response: 9.21

###

# assayed-target: hAhR (Homo sapiens, UniProt P35869)
# procedure-text: biochemical
readout-label: EC50 (nM)
Numeric answer only, unit nM assumed.

Exam item: Consider the compound Clc1cc2c(cc1Cl)Oc1cc(Cl)c(Cl)cc1O2 and give its measured EC50.
Marked response: 2.46

###

# assayed-target: mutant mAhR Q299R (Mus musculus, UniProt P30561, M324I/Q299R)
# procedure-text: AhR DNA binding (gel retardation) assay, Q299R mAhR
readout-label: pEC50
Value format note: pEC50 is -log10 of concentration (mol/L); just state the number.

Exam item: So what's the measured pEC50 for this one? Clc1cc2c(cc1Cl)Oc1cc(Cl)c(Cl)cc1O2 [TCDD, 2,3,7,8-tetrachlorodibenzo-p-dioxin]
Marked response: 8.64

###

# assayed-target: mutant hAhR Y332H (Homo sapiens, UniProt P35869, Y332H)
# Construct: made in house; host or cells: in vitro transcription/translation, rabbit reticulocyte lysate
# procedure-text: AhR DNA binding (gel retardation) assay, Y332H hAhR
# Type: biochemical
readout-label: pEC50
# pEC50: negative log10 of molar concentration; output just the value

Exam item: Item Clc1cc2c(cc1Cl)Oc1cc(Cl)c(Cl)cc1O2 with mutant hAhR Y332H (Homo sapiens, UniProt P35869, Y332H) - pEC50?
Marked response: 9.23

###

# assayed-target: mutant mAhR I301V (Mus musculus, UniProt P30561, I301V/M324I)
# Construct: made in house; host or cells: in vitro transcription/translation, rabbit reticulocyte lysate
# procedure-text: AhR DNA binding (gel retardation) assay, I301V mAhR
# Type: biochemical
readout-label: pEC50
Note on pEC50: it is the negative log10 of concentration, concentration in mol/L.

Exam item: Which pEC50 reading was recorded for the compound Clc1cc2c(cc1Cl)Oc1cc(Cl)c(Cl)cc1O2 ?
Marked response: 8.68

###

# assayed-target: human AhR (hAhR) (Homo sapiens, UniProt P35869)
# Sequence (P35869 11-848): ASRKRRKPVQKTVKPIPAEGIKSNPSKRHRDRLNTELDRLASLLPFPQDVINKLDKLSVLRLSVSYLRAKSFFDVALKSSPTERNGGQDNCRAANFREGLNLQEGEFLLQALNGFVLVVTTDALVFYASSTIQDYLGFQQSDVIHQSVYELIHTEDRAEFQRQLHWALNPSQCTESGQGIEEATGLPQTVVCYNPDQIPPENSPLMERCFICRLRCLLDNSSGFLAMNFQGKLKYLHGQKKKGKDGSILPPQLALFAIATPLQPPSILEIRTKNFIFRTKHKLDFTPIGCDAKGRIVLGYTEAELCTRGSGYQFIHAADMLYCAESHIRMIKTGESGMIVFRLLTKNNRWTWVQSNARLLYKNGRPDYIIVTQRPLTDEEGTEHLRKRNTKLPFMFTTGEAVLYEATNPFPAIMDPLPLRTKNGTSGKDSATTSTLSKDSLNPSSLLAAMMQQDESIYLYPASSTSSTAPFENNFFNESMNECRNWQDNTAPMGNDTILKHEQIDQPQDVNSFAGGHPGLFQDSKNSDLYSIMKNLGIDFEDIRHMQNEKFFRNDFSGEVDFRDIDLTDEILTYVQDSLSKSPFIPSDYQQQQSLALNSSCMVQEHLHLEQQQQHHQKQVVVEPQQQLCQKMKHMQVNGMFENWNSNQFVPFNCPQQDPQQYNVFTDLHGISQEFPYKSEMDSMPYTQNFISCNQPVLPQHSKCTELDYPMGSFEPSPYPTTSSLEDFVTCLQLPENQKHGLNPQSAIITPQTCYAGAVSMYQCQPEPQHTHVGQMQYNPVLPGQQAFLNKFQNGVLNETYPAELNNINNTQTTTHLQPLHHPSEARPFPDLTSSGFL
# procedure-text: AhR-responsive luciferase reporter gene assay in stably transfected human HG2L6.1c1 hepatoma cells
# EC50 values compiled below
Report only the number, with the unit nM understood.

Examples with answers:
substance-smiles | measurement-units | EC50
Clc1cc2oc3cc(Cl)c(Cl)cc3c2cc1Cl | nM | 4.1
COC(=O)c1csc(C(=O)c2c[nH]c3ccccc23)n1 | nM | 184

Exam item: Find the measured EC50: item Clc1cc2c(cc1Cl)Oc1cc(Cl)c(Cl)cc1O2 , target or system human AhR (hAhR) (Homo sapiens, UniProt P35869).
Marked response: 0.26

Exam item: Provide the documented EC50 with human AhR (hAhR) (Homo sapiens, UniProt P35869) as the system for Cc1ccc2cc3c(ccc4ccccc43)c3c2c1CC3
Marked response: 14.6

###

# assayed-target: UniProt:P30561
# procedure-text: AhR-responsive luciferase reporter gene assay in stably transfected mouse H1L6.1c3 hepatoma cells
# Type: cell-based
# condition-description: mouse
readout-label: pEC50
Units for pEC50: none; it is -log10 of a concentration expressed in mol/L.

Exam item: Look up pEC50 for this molecule: O=C1Nc2ccccc2/C1=C1/Nc2ccccc2C1=O [IR, indirubin]
Marked response: 7.81

###

# assayed-target: mutant mAhR L300I (Mus musculus, UniProt P30561, L300I/M324I)
# procedure-text: AhR DNA binding (gel retardation) assay, L300I mAhR
readout-label: pEC50
When answering, recall that pEC50 equals minus log10 of the concentration in mol/L, and write that number alone.

Exam item: Given the entry Clc1cc2c(cc1Cl)Oc1cc(Cl)c(Cl)cc1O2 , what pEC50 was observed with mutant mAhR L300I (Mus musculus, UniProt P30561, L300I/M324I)?
Marked response: 8.85

###

# assayed-target: mutant hAhR T355A (Homo sapiens, UniProt P35869, T355A)
# Construct: made in house; host or cells: in vitro transcription/translation, rabbit reticulocyte lysate
# procedure-text: AhR DNA binding (gel retardation) assay, T355A hAhR
# Type: biochemical
readout-label: EC50 (nM)
Reply with just the number (in nM).

Exam item: Query (compound): Clc1cc2c(cc1Cl)Oc1cc(Cl)c(Cl)cc1O2 ; field requested: EC50
Marked response: 2.32

###

# assayed-target: mouse AhR (mAhR) (Mus musculus, UniProt P30561)
# Sequence (P30561 10-805): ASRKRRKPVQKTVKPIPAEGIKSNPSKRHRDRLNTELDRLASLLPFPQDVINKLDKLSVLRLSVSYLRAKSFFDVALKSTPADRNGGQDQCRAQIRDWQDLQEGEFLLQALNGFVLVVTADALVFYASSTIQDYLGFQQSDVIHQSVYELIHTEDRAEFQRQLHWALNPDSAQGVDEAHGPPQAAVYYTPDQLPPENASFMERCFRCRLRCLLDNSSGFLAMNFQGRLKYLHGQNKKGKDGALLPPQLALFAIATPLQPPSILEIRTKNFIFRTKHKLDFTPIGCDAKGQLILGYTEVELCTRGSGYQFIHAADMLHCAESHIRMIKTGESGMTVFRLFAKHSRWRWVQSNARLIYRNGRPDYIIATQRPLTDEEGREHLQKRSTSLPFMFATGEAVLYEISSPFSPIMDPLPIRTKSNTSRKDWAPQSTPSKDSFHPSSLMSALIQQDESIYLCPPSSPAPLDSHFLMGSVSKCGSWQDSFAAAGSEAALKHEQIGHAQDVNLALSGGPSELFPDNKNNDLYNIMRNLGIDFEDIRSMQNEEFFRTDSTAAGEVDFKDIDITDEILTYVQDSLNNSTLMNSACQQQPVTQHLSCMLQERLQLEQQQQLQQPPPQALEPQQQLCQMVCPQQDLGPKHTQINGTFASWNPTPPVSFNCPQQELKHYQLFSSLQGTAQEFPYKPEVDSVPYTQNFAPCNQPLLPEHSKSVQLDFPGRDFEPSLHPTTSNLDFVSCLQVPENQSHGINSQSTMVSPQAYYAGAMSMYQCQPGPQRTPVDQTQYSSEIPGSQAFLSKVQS
# procedure-text: AhR-responsive luciferase reporter gene assay in stably transfected mouse H1L6.1c3 hepatoma cells
# Assay type: cell-based
# condition-description: mouse H1L6.1c3 hepatoma cells, 4 h, mean ± SD of nine analyses; read-out: EC50 to stimulate luciferase reporter gene expression, Mouse
readout-label: EC50
# include the unit after the value

Solved entries:
molecule | EC50
Clc1cc2oc3cc(Cl)c(Cl)cc3c2cc1Cl | 1.25 nM
O=c1cc(-c2ccccc2)oc2ccc3ccccc3c12 | 1.84 nM
Cc1ccc2cc3c(ccc4ccccc43)c3c2c1CC3 | 1.49 nM

Kindly consider the entry below.
Exam item: Look at this molecule and give its reported EC50. O=Cc1c2[nH]c3ccccc3c2cc2[nH]c3ccccc3c12 [FICZ, 6-formylindolo[3,2-b]carbazole]
Marked response: 3.71 nM

These measurements were taken from paper PMC6165432.
